RUN DESCRIPTION: Components of the Cytosolic LPS Sensing Pathway: Gene Identification via Genome-wide siRNA Screen;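 also: robust z of the log signal after scaling to non-targeting control siRNA wells of the plate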
REPORTED CONDITIONS: RAW264.7 macrophages, IL-1a HTRF, actives lie on both sides, screened at 100 nM (by protocol), cells primed 5 h with Pam3CSK4 first
Screen size: about 53,000 sequences; about 3,700 (7%) were called active. The full list was thinned out, with actives kept by preference.
// z-score lookup, one value per entry
MEASUREMENT NAME: z-score

GCUUUGCAAUUCACAGGGATT against Scgb1b27 :: -1.76 (inactive)
GGUCAAUUCCAUGAUUACGTT against Pgm3 :: 0.538 (inactive)
GCGGCUUUGUAUACAAGUUTT against Vwc2l :: 1.11 (inactive)
GGACCGAUUAAGGAAGGAATT against Ppp1r1a :: 2.49 (active)
CCUCAUCGAUGCACUACCCTT against Lrfn4 :: -0.338 (inactive)
GGCCAGUUUAAACCAGUCUTT against Frmd6 :: 0.583 (inactive)
GGGAGAGCUGGCUAAAUGATT against Sptbn4 :: -0.956 (inactive)
GGCUCCUAGCUGUUUCAGUTT against Hormad1 :: -1.62 (inactive)
GGUUGUUUAUGCUUUCUCUTT against Arhgap32 :: -0.766 (inactive)
GGUACCAUGAAGGAUUUAUTT against Tspan2 :: 3.24 (active)
GCUGAUUAACCCUCAGUAUTT against Gpc6 :: -0.531 (inactive)
GCCAGCAUAAAUAUACUUUTT against Apol10a :: -0.0597 (inactive)
